Please respond with reported Ratio Ki for every item in the list.
# Species: Rattus norvegicus
# experiment-summary: Selectivity ratio of Ki for alpha7 nicotinic acetylcholine receptor to Ki for alpha4beta2 nicotinic acetylcholine receptor in rat brain minus cerebellum membrane
# Assay type: tissue-based
Numbers only.

* CN1C[C@@H]2CN(c3cccnc3)C[C@@H]2C1 | 61
* c1ccc(-c2ccc(N3C[C@H]4CNC[C@H]4C3)nn2)cc1 | 300

Could you now look at the following molecule, please?
Look up Ratio Ki for this molecule: CCOc1cncc(N2C[C@H]3CNC[C@H]3C2)c1
41000

* * *

# Species: Rattus norvegicus
# experiment-summary: Selectivity ratio of Ki for alpha7 nicotinic acetylcholine receptor to Ki for alpha4beta2 nicotinic acetylcholine receptor in rat brain minus cerebellum membrane
# Assay type: tissue-based
For each entry below, report its Ratio Ki value.
Answers are plain numbers.

Please review the following examples before continuing.
* CN1C[C@@H]2CN(c3ccc(-c4cccc(-c5ccccc5)c4)nc3)C[C@@H]2C1 | 220
* Brc1ccc(N2C[C@H]3CNC[C@H]3C2)cn1 | 1000
* C[N+]1(C)C[C@H]2CN(c3ccc(Cl)nc3)C[C@H]2C1 | 1.6
* Clc1ccc(N2C[C@H]3CNC[C@H]3C2)cn1 | 900

Dear reader, for each entry below, please note its Ratio Ki.
1. CN1C[C@@H]2CN(c3ccc(-c4cccc(O)c4)nn3)C[C@@H]2C1
2. Brc1cncc(N2C[C@H]3CNC[C@H]3C2)c1
3. c1ccc(-c2ccc(N3C[C@H]4CNC[C@H]4C3)cn2)cc1
4. c1ccc(-c2cncc(N3C[C@H]4CNC[C@H]4C3)c2)cc1
5. CN1C[C@@H]2CN(c3ccc(-c4ccccc4)nc3)C[C@@H]2C1
6. COc1cncc(N2C[C@H]3CNC[C@H]3C2)c1

[2660, 1100, 0.09, 28000, 0.0003, 2900]
